Tested on: ACHN
Assay: NCI tumour cell line growth inhibition, 48 h
Activity calls are given as the source filed them. Cut-off read from the data, not from the text of the source: active = GI50 up to about 1.1 µM and inactive = higher.
assay_endpoint: GI50

Record excerpt, results attached:
Lab request: please report GI50 under test system ACHN for `Nc1nnnn1CCO`
> 100 µM (inactive)

Query `OCCCc1cnco1` next
> 100 µM (inactive)

Query COc1ccc(C(Nc2ccccn2)c2cc(C(C)(C)C)cc(C(C)(C)C)c2O)cc1 (configuration not stated) next
30.8 µM (inactive)

Query `CC(=O)Nc1ccc(-c2nnc(SCC(=O)Nc3ccc([N+](=O)[O-])cc3)o2)cc1` next
15.4 µM (inactive)

Query CC1(C)Cc2ccccc2C(C)(Cl)C(=O)N1 (configuration not stated) next
> 10 µM (inactive)

Others:
Lab request: please report GI50 under test system ACHN for `COc1cccc(CCN2CCN(CCCc3ccccc3)CC2)c1`
> 100 µM (inactive)

Query `CC(C)(C)c1cc2c(O)c(c1)COCc1cc(C(C)(C)C)cc(c1O)COCc1cc(C(C)(C)C)cc(c1O)COC2` next
63.2 µM (inactive)

* * *

Entries and their GI50 values follow.
System: NCI-H226
Test: NCI tumour cell line growth inhibition, 48 h
Active and inactive are the calls of the source. No stated cut-off is given here; in the data, active = GI50 up to about 1.1 µM and inactive = higher.

Record excerpt, results attached:
Return reported GI50; argument: `Oc1ncc(N(CCCl)CCCl)c(O)n1`
48.2 µM (inactive)

Query `CCc1nc2ccc(/N=N/N(C)C)cc2[nH]1` next
> 100 µM (inactive)

Query CC1(C)C(=O)/C=C\C(=O)C(C)(C)C2=CC=C(O2)C(C)(C)C(=O)C(Br)C(Br)C(=O)C(C)(C)C2=CC=C1O2 (stereo not drawn) next
> 100 µM (inactive)

Query O=C(c1ccc(Cl)cc1)N1N=C(c2ccc(Cl)cc2)CC1(O)c1cc(F)c(Cl)cc1Cl (stereo not drawn) next
50.6 µM (inactive)

Query `COc1ccc(/C=C2\NC(=S)N(CN3CCOCC3)C2=O)cc1` next
> 100 µM (inactive)

Others:
Return reported GI50; argument: O=C(/C(=N\Nc1ccc([N+](=O)[O-])cc1[N+](=O)[O-])NC12CC3CC(CC(C3)C1)C2)C(Br)C(=O)c1ccccc1 (stereo not drawn)
2.52 µM (inactive)

Query C=C(Cl)C(C)(Cl)CCC(Br)C(C)(C)Cl (stereo not drawn) next
41.8 µM (inactive)

Query `CN(C)Cc1cc(C(=O)/C=C/c2ccccc2Cl)cc(CN(C)C)c1O` next
24.3 µM (inactive)

Query `CC1=NN(c2nc(N)nc(-c3sccc3N)n2)C(C)(C)C1` next
33.1 µM (inactive)

Query COc1cc(C2SCCCCCCCCCCSC(c3ccc(O)c(OC)c3)SCCCCCCCCCCS2)ccc1O (stereo not drawn) next
> 100 µM (inactive)

Query `COc1cccc(CCN2CCN(CCCc3ccccc3)CC2)c1` next
71 µM (inactive)

Query `O=C1NC(=O)C2(CCCCCC2)N1` next
> 100 µM (inactive)

Query `O=C(/C=C/c1csc(-c2ccccc2)n1)NCc1ccc(C(=O)NCCc2ccccc2)cc1` next
25.5 µM (inactive)

Query CCOP(=O)(OCC)C(Nc1ccc(F)cc1)c1ccccc1 (stereo not drawn) next
> 100 µM (inactive)

Query `Cc1ccc2c(c1)C(=O)c1ccc(C)nc1C2=O` next
> 100 µM (inactive)

Query `CC(C)C(/C=C/c1ccc(Br)cc1)=N\NC(N)=O` next
> 100 µM (inactive)

Query `CC1(C)N/C(=C\[N+](=O)[O-])C(C)(C)N1O` next
> 10 µM (inactive)

Query `Nc1nc(SCC(=O)c2ccc(Br)cc2)c2nc[nH]c2n1` next
27.1 µM (inactive)

Query COc1ccc(C(Nc2ccccn2)c2cc(C(C)(C)C)cc(C(C)(C)C)c2O)cc1 (stereo not drawn) next
21.3 µM (inactive)

Query `O=S(=O)(Cc1cnc(O)nc1O)Cc1cnc(O)nc1O` next
> 100 µM (inactive)

Query COc1cc(/C=C2/C(=O)N(C(=O)OCc3ccccc3)C(Cc3cc(OC)c(OC)c(C)c3OC)C(=O)N2Cc2ccccc2)c(OC)c(C)c1OC (stereo not drawn) next
2 µM (inactive)

Query CC(=O)NN1C(=O)C(Cc2ccccc2)c2ccccc21 (stereo not drawn) next
> 100 µM (inactive)

Query `C=CC(C)(C)c1cc([C@@H]2COc3cc(O)ccc3C2=O)c(O)c(OC)c1OC` next
16.5 µM (inactive)

Query OC1CSc2nc3ccccc3n2C1 (stereo not drawn) next
> 100 µM (inactive)

Query `C/C=C(/C)C(=O)O[C@H]1C[C@@H]2[C@@H](O)c3occ(C)c3C[C@]2(C)[C@@H](C)C1` next
14.2 µM (inactive)

Query CC1(C)Cc2ccccc2C(C)(Cl)C(=O)N1 (stereo not drawn) next
> 10 µM (inactive)

Query `CN(N)/N=N/c1[nH]cnc1[N+](=O)[O-]` next
> 100 µM (inactive)

Query `O=[N+]([O-])c1cc(Cl)ccc1S(=O)(=O)c1ccccc1` next
67.6 µM (inactive)

Query C/C=C1/CN2CCC34C(=C(C(=O)OC)C1CC23)Nc1ccc(O)cc14 (stereo not drawn) next
> 100 µM (inactive)

* * *

Test system: SF-295
Test: NCI tumour cell line growth inhibition, 48 h
Calls of active or inactive are those of the source. Cut-off read from the data, not from the text of the source: active = GI50 up to about 1.1 µM and inactive = higher.
assay_endpoint: GI50

Record excerpt, results attached:
Return reported GI50; argument: `CCOC(=O)/C(=C\c1ccc(O)c(OC)c1)C(=O)c1ccccc1`
18.9 µM (inactive)

Query `Cc1nc(C)c(N2CCN(S(N)(=O)=O)CC2)c(O)n1` next
> 100 µM (inactive)

Others:
Return reported GI50; argument: `O=C(/C=C/CC(O)(c1ccccc1)c1ccccc1)Nc1ccccc1Cl`
> 100 µM (inactive)

Query CC(CC(=O)O)C(C(=O)O)C(=O)O (stereo not drawn) next
> 100 µM (inactive)

Query COc1ccc(OC)c(C2CCc3cnc4nc(N)nc(N)c4c3C2)c1 (stereo not drawn) next
56.2 µM (inactive)

Query CC(=O)NC1CC(C(C)(C)NC(C)=O)CC=C1C (stereo not drawn) next
> 100 µM (inactive)

Query CC1CCCc2c(CC3CC(=O)NC(=O)C3)nc(N)nc21 (stereo not drawn) next
> 100 µM (inactive)

* * *

Tested on: Malme-3M
Assay: NCI tumour cell line growth inhibition, 48 h
Activity calls are given as the source filed them. No stated cut-off is given here; in the data, active = GI50 up to about 1.1 µM and inactive = higher.
Entry note: the call must match one of active, inactive

Please review the following examples before continuing.
Can you look up the reported call for `C#CCOCn1cnc2c(Cl)ncnc21` for me?
inactive

Query CC(=O)NC(CCCCNC(=O)OCc1ccccc1)C(=O)NCc1ccccc1 (centres undefined) next
inactive

Query Oc1ncc(N(CCCl)CCCl)c(O)n1 [URACIL MUSTARD] next
inactive

Query CCc1cccc(C)c1N1C(=O)C(=O)C(c2nc3ccccc3o2)/C(=N/NC(=S)NN)C1=O (centres undefined) next
inactive

Query NC1C2C=CC(C2)C1C(=O)O (centres undefined) next
inactive

Others:
Can you look up the reported call for `CC(=O)CC(=O)Nc1ccc2ccccc2c1` for me?
inactive

Query `COc1ccc(/C(=N/OCCCC(=O)O)c2cccs2)cc1` next
inactive

Query CC1C(NNC(N)=O)Oc2cc3c(cc2C1c1ccccc1O)OCO3 (centres undefined) next
inactive

Query CC(C)CC(NC(=O)C(CI)Cc1ccccc1)C(=O)Nc1ccccc1 (centres undefined) next
inactive

Query CC(CC(=O)N1C(=O)C(C)(C)[C@@H](O)[C@H]1CC(C)C(Cl)(Cl)Cl)C(Cl)(Cl)Cl (some centres undefined) next
inactive

* * *

Entries and their GI50 values follow.
System: HOP-92
Assay: NCI tumour cell line growth inhibition, 48 h
Activity calls are given as the source filed them. Rule as the data show it: active = GI50 up to about 1.1 µM and inactive = higher.

Return reported GI50; argument: COC1=CC(O)(CC(N)=O)c2ccccc2C1=O (stereo not drawn)
> 100 µM (inactive)

Query `Nc1nnnn1CCO` next
> 100 µM (inactive)

Query Cc1coc2c1CC1OC1(C)CCC1OC1(C)C2 (stereo not drawn) next
> 100 µM (inactive)

Query `Cc1nc2c(n1CCCl)C(=O)c1ccccc1C2=O` next
29.2 µM (inactive)

Query `Nc1nc(Cl)cc(NCC2(O)CCCC2)n1` next
> 100 µM (inactive)

Others:
Return reported GI50; argument: COc1ccc(C(c2cc3c(cc2O)OCO3)N2CCOCC2)cc1OC (stereo not drawn)
16 µM (inactive)

Query `Cc1ccc(O)c(Cc2nc3ccccc3nc2-c2cccc(Br)c2)c1` next
> 100 µM (inactive)

Query `c1ccc(CN2CCC3(CC2)SSC2(CCN(Cc4ccccc4)CC2)SS3)cc1` next
> 100 µM (inactive)

Query `O=Cc1cc2c(s1)C(=O)c1sccc1C2=O` next
1.46 µM (inactive)

Query O=C1C2CCCC2N1Cc1ccccc1 (stereo not drawn) next
> 100 µM (inactive)

Query `CCN(CC)c1c(C)c(C(=O)OC)nn1-c1ccccc1` next
71 µM (inactive)

Query O=C(CNC(c1ccccc1)(c1ccccc1)c1ccccc1)NC1CCCCC1NC(=O)CNC(c1ccccc1)(c1ccccc1)c1ccccc1 (stereo not drawn) next
12 µM (inactive)

Query `C#CCOCn1cnc2c(Cl)ncnc21` next
> 100 µM (inactive)

Query CC1(C)Cc2ccccc2C(C)(Cl)C(=O)N1 (stereo not drawn) next
> 10 µM (inactive)

Query `O=C1Nc2ccccc2/C1=N/N1C(=O)/C(=C/c2ccccc2S)N=C1c1ccccc1` next
77.6 µM (inactive)

Query `Cc1ccnc2c1c(=O)c1ccccc1n2C` next
49.7 µM (inactive)

Query O=S(=O)(O)C(c1ccccc1)C(O)c1ccccc1 (stereo not drawn) next
> 100 µM (inactive)

Query CC(O)c1ccc(C(O)/C(=N\NC(=O)c2ccncc2)c2nc3ccc([N+](=O)[O-])cc3nc2O)cc1 (stereo not drawn) next
> 100 µM (inactive)

From: ChEMBL document CHEMBL1201862
